Reference source: ChEMBL document CHEMBL3259599

# TEST PROTOCOL: Antiproliferative activity against BAEC after 3 days by coulter counter analysis
# Type: functional
# MEASUREMENT CONTEXT: Bos taurus, 72 h
Below: a set of entries, each annotated with reported IC50.
PROPERTY: IC50 (µM)

# COMPOUND, PROPERTY, READING QUALIFIER, RESULT VALUE
data = [
    ("COc1ccccc1NC(C)=C1C(=O)CC(c2ccc(C)cc2)CC1=O (stereo unspecified)", "IC50", "=", 8.4),
    ("COc1ccccc1NC(C)=C1C(=O)CC(c2c(C)cccc2C)CC1=O (stereo unspecified)", "IC50", "=", 41),
    ("COc1ccccc1NC(C)=C1C(=O)CC(c2ccc(Cl)cc2)CC1=O (stereo unspecified)", "IC50", "=", 42),
    ("CC(Nc1ccccc1C)=C1C(=O)CC(c2cccc(O)c2)CC1=O (stereo unspecified)", "IC50", "=", 2.1),
    ("CC(Nc1ccccc1C(F)(F)F)=C1C(=O)CC(c2ccccc2)CC1=O (stereo unspecified)", "IC50", "=", 8.1),
    ("COc1ccccc1NC(C)=C1C(=O)CC(c2ccc(F)cc2)CC1=O (stereo unspecified)", "IC50", "=", 1.7),
    ("CCC(Nc1ccc(OC)c(OC)c1)=C1C(=O)CC(c2ccccc2)CC1=O (stereo unspecified)", "IC50", ">", 100),
    ("COc1ccccc1NC(C)=C1C(=O)CC(c2ccccc2F)CC1=O (stereo unspecified)", "IC50", "=", 2.7),
    ("COc1ccccc1NC(C)=C1C(=O)CC(c2ccccc2C)CC1=O (stereo unspecified)", "IC50", "=", 3.2),
    ("CC(Nc1cccc(F)c1F)=C1C(=O)CC(c2ccccc2)CC1=O (stereo unspecified)", "IC50", "=", 14),
    ("CCC(Nc1ccc2c(c1)OCO2)=C1C(=O)CC(c2ccccc2)CC1=O (stereo unspecified)", "IC50", "=", 43),
]

====

# TEST PROTOCOL: Antiproliferative activity against BAEC after 3 days by coulter counter analysis
# Assay type: functional
# MEASUREMENT CONTEXT: Bos taurus, 72 h
Criterion: IC50 strictly less than 500 nM. Met: Met. Not met: Not met.

# COMPOUND, CLASS LABEL
measured = [
    ("COc1cccc(C2CC(=O)C(=C(C)Nc3ccccc3C)C(=O)C2)c1 (stereo not given)", "Met"),
    ("CCC(Nc1ccccc1O)=C1C(=O)CC(c2ccccc2)CC1=O (stereo not given)", "Not met"),
    ("CCC(Nc1cc(OC)c(OC)c(OC)c1)=C1C(=O)CC(c2ccccc2)CC1=O (stereo not given)", "Not met"),
    ("COc1ccccc1NC(C)=C1C(=O)CC(c2ccccc2)CC1=O (stereo not given)", "Met"),
    ("COc1ccc(OC)c(NC(C)=C2C(=O)CC(c3ccccc3)CC2=O)c1 (stereo not given)", "Not met"),
    ("CCC(Nc1ccc(O)cc1)=C1C(=O)CC(c2ccccc2)CC1=O (stereo not given)", "Not met"),
    ("COc1ccccc1NC(C)=C1C(=O)CC(c2cccc(C)c2)CC1=O (stereo not given)", "Met"),
    ("CCCC(Nc1ccccc1C)=C1C(=O)CC(c2ccccc2)CC1=O (stereo not given)", "Not met"),
    ("COc1cc2c(c(OC)c1OC)-c1ccc(OC)c(=O)cc1[C@@H](NC(C)=O)CC2", "Met"),
]
